B1: Pistol ribozyme (parent)
chain: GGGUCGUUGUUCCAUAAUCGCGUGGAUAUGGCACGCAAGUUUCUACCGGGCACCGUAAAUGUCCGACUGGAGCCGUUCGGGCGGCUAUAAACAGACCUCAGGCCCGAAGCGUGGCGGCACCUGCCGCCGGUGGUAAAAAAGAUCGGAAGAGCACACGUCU

- Variants of: B1
- assayComment: aptazyme ON/OFF ratio, guanine; higher = stronger switching; co-transcriptional cleavage with and without guanine
This listing pairs variants with measured aptazyme ON/OFF ratio.
// response body must contain only the number

Lookup: Supply measured aptazyme ON/OFF ratio of U7A U8G G9A U11A C12U C13U in your reply.
Found: 1.32

Lookup: Output aptazyme ON/OFF ratio of U8G G9U U10C C12U C13G
Found: 1.08

Lookup: Quickly give me recorded aptazyme ON/OFF ratio for U7A G9C U10G C12A C13U
Found: 1.09

Lookup: For U7C G9C C12G C13U , write its aptazyme ON/OFF ratio.
Found: 1.05

Lookup: Using the record for U7G U8A G9A C13A , state its measured aptazyme ON/OFF ratio.
Found: 1.25

Lookup: Please look at this variant and report its aptazyme ON/OFF ratio: U7C U8G G9C U10G C12U
Found: 1.4

***
Lookup: Please give measured aptazyme ON/OFF ratio of the following entry: U10A U11C C12U C13G
Found: 1.08

Lookup: Answer with the recorded aptazyme ON/OFF ratio of U7A G9C U10C U11A C12U C13U only.
Found: 1.06

Lookup: State its aptazyme ON/OFF ratio: U8C G9C U10C U11A C13U
Found: 1.04

Lookup: Return aptazyme ON/OFF ratio for the following variant: U7G G9U U10C U11A C13A
Found: 1.34

Lookup: Give the reported value of aptazyme ON/OFF ratio for this record: U7A G9U U10A U11A C12U C13A
Found: 1.3
